System: aldose reductase (Rattus norvegicus)
Construct: water soluble extracts of rat lenses; from tissue; host or cells: rat lens (water-soluble extract)
Assay Explanation: Inhibition of aldose reductase enzyme activity (Kador and Sharpless method, water soluble extracts of rat lenses)
Format: biochemical
Measurement Parameters: Table 2; 10^-8 M; read-out: Inhibition (%)
Metric Name: inhibition at 0.01 µM (%)

Study these solved cases before continuing.
# Compound, System, Reading Unit, inhibition at 0.01 µM
rows = [
    ("CC(=O)Nc1cc(F)cc2c1O[C@@H](C(N)=O)CC21NC(=O)NC1=O (some centres unmarked) [P]", "aldose reductase (Rattus norvegicus)", "%", 30),
    ("NC(=O)C1CC2(NC(=O)NC2=O)c2cc(F)cc([N+](=O)[O-])c2O1 (racemic) [L]", "aldose reductase (Rattus norvegicus)", "%", 15),
    ("NC(=O)[C@H]1CC2(NC(=O)NC2=O)c2cc(F)cc([N+](=O)[O-])c2O1 (some centres unmarked) [J]", "aldose reductase (Rattus norvegicus)", "%", 35),
]

P. NC(=O)C1CC2(NC(=O)NC2=O)c2cc(F)cc(N)c2O1 (racemic) [M]
Q. NC(=O)[C@H]1CC2(NC(=O)NC2=O)c2cc(F)cc(N)c2O1 (some centres unmarked) [K]
Parameter check: reported inhibition at 0.01 µM is higher for which label, P or Q ? Kindly give the label for the entry you pick.
Q
(Q: 27%, P: 13%)
